Tested on: BDF1 mice, P388 leukemia ip, median survival T/C
Test: NCI In Vivo Anticancer Drug Screen. Data for tumor model P388 Leukemia (intraperitoneal) in B6D2F1 (BDF1) mice
Conditions: endpoint: median survival time; dose: 400.0 mg/kg/injection; schedule: Q01DX001 (ip); vehicle: Klucel (hydroxypropylcellulose) (HPC); higher = longer survival
Toxic doses and inconclusive results are not listed.
metric: T/C

Check out these entries, answers already filled in.
O=C(c1ccc(Cl)cc1)n1c(Cl)c(/C=N\Nc2cccc([N+](=O)[O-])c2)c2ccccc21: 89 % of control
COc1ccc(C=NCCN=Cc2ccc(OC)cc2)cc1: 95 % of control

Please supply T/C for each of the following items, keeping them in order.
1. CCOc1ccc(N2C(=O)CC(Sc3ccccc3N)C2=O)cc1 (stereo unspecified)
2. ClC1=C(Cl)C2(Cl)C3COCC3C1(Cl)C2(Cl)Cl (stereo unspecified)
3. CN(C)C(=S)SSC(=S)N(C)C
4. CSc1ncc2ncn(C3OC(CO)C(O)C3O)c2n1 (stereo unspecified)

Response:
["100 % of control", "104 % of control", "113 % of control", "109 % of control"]

---

System: BDF1 mice, P388 leukemia ip, median survival T/C
Experiment: NCI In Vivo Anticancer Drug Screen. Data for tumor model P388 Leukemia (intraperitoneal) in B6D2F1 (BDF1) mice
Settings: endpoint: median survival time; dose: 25.0 mg/kg/injection; schedule: Q04DX003 (ip); vehicle: saline
Inconclusive results and toxic doses are left out. Rule for the calls: active = survival T/C of 150% or more; inactive = T/C below 125% in these data.
Respond with a class label; see active, inactive

Observe how each entry below is paired with its result.
O=C(c1cc(Cl)cc(Cl)c1)N1CC1: inactive
Cc1ccc(C[N+](C)(C)C)c2ccccc12: inactive
NC(=O)c1ccc(N)nc1: inactive

Request: Status in this test for N#Cc1cn(C2OC(CO)C(O)C2O)c2nc(Cl)nc(N)c12 (centres undefined) ?
Response: active

---

Test system: BDF1 mice, P388 leukemia ip, median survival T/C
Test: NCI In Vivo Anticancer Drug Screen. Data for tumor model P388 Leukemia (intraperitoneal) in B6D2F1 (BDF1) mice
Settings: endpoint: median survival time; dose: 6.25 mg/kg/injection; schedule: Q01DX009 (ip); vehicle: saline; higher = longer survival
Toxic doses and inconclusive results are not listed.
metric: T/C

Solved entries:
CC[P+](CC)(CC)CCCCI: 120 % of control
O=C1OC(=O)C2C3C=CC(O3)C12 (stereo not drawn): 110 % of control
CN1Cc2cc3cc(c2O)C[N+](C)(C)Cc2c(Cl)c(c(Cl)c(c2Cl)C[N+](C)(C)C3)C1: 118 % of control
N=C(N)SCc1ccc(CSC(=N)N)s1: 97 % of control
O=S1(=O)CC(Cl)C(Cl)C1 (stereo not drawn): 90 % of control

Required: T/C, one value per compound below.
1. [CH3][Sn]([CH3])([Cl])[S]CCN
2. COc1cccc(CC2=NCCc3cc(OC)c(OC)cc32)c1

Response:
["123 % of control", "108 % of control"]

---

Tested on: BDF1 mice, P388 leukemia ip, median survival T/C
Assay: NCI In Vivo Anticancer Drug Screen. Data for tumor model P388 Leukemia (intraperitoneal) in B6D2F1 (BDF1) mice
Details: endpoint: median survival time; dose: 100.0 mg/kg/injection; schedule: Q04DX003 (ip); vehicle: saline with Tween-80; higher = longer survival
Toxic doses and inconclusive results are not listed.
metric: T/C

Consider the worked cases shown below.
COc1cc(/C=N/Nc2ccc([N+](=O)[O-])cc2)cc(OC)c1OC: 95 % of control
COC(=O)C(C#N)Cc1ccccc1Cl (configuration not stated): 98 % of control
CCNC(C)(C)C(SS(=O)(=O)O)c1ccc(Cl)s1 (configuration not stated): 95 % of control
Cc1cc(C(=O)c2ccccn2)c2cccc(C(F)(F)F)c2n1: 95 % of control
FC(F)(F)C(F)(F)C(F)(F)c1nc2nc(Cl)c(Cl)nc2[nH]1: 90 % of control
CSc1ccc(OC(=O)Nc2ccc(C)c([N+](=O)[O-])c2)cc1C: 90 % of control
Cc1nc(Cl)c(C(N)=O)nc1C: 96 % of control
Cc1ccc(S(=O)(=O)N(C)c2cc(Cl)c(C(N)=O)c(Cl)c2)cc1: 105 % of control

For each of the items listed, what is its T/C?
1. Cc1ccccc1N1C(=O)CSC1=S
2. N#CC1c2ccccc2C=CN1C(=O)c1ccccc1 (configuration not stated)
3. N#CCC(C#N)N1CCOCC1 (configuration not stated)
4. CCCNC(=O)Nc1ccc(C)c(Cl)c1

Response:
100 % of control
100 % of control
108 % of control
104 % of control

---

Test system: BDF1 mice, P388 leukemia ip, median survival T/C
Experiment: NCI In Vivo Anticancer Drug Screen. Data for tumor model P388 Leukemia (intraperitoneal) in B6D2F1 (BDF1) mice
Details: endpoint: median survival time; dose: 100.0 mg/kg/injection; schedule: Q01DX009 (ip); vehicle: Klucel (hydroxypropylcellulose) (HPC); higher = longer survival
Toxic doses and inconclusive results are not listed.
metric: T/C

Record excerpt, results attached:
CC1C/C=C2\CSC(NC(=O)/C3=C\N(C/C=C/C=C/C(O)CC(O)CC(=O)N3)C2=O)C(=O)O1 (stereo unspecified): 91 % of control
O=I(=O)c1ccccc1: 104 % of control
BrC1C2CC3C(C2)C13 (stereo unspecified): 100 % of control
O=c1[nH]cc(F)c(=O)[nH]1.[Tl]: 91 % of control
CCOC(=O)CCC(NC(=O)Cc1ccc(NC(=O)C(F)(F)F)cc1)C(=O)OCC (stereo unspecified): 100 % of control
c1ccc(C2=C(c3ccccc3)C23SCCS3)cc1: 113 % of control

Could you tell me T/C for each of these compounds? They are listed below.
1. CNC(=S)N(N)c1ccccc1
2. CC(=O)Nc1ccc2c(c1)Cc1cc(NC=O)ccc1-2
3. O=C(CO)Nc1ccc(Br)cc1
4. CC(=O)O[C@]1(C(C)=O)CC[C@H]2[C@@H]3C[C@H](C)C4=CC(=O)CC[C@]4(C)[C@H]3CC[C@@]21C

Response:
1: 94 % of control; 2: 91 % of control; 3: 104 % of control; 4: 111 % of control

---

Test system: BDF1 mice, P388 leukemia ip, median survival T/C
Test: NCI In Vivo Anticancer Drug Screen. Data for tumor model P388 Leukemia (intraperitoneal) in B6D2F1 (BDF1) mice
Conditions: endpoint: median survival time; dose: 200.0 mg/kg/injection; schedule: Q01DX005 (ip); vehicle: saline with Tween-80
Toxic doses and inconclusive results are not listed. Rule for the calls: active = survival T/C of 150% or more; inactive = T/C below 125% in these data.
Field 'call' accepts active, inactive

Answered cases to consult:
CN(C)c1ccc(/C=C/c2cccc(/C=C/c3ccc(N(C)C)cc3)[n+]2[O-])cc1: inactive
O=S(=O)(CBr)OCCCl: active
COC(=O)c1cc(=O)nc(N/N=C/c2ccc3c(c2)OCO3)s1: inactive
O=C1NC(O)c2cc(CO)ccc2O1 (stereo not given): inactive

--- query ---
Request: What was the test verdict on O=C1CN(Cc2ccccc2)CC(=O)N2Cc3ccccc3CN12 ?
Response: inactive

---

System: BDF1 mice, P388 leukemia ip, median survival T/C
Test: NCI In Vivo Anticancer Drug Screen. Data for tumor model P388 Leukemia (intraperitoneal) in B6D2F1 (BDF1) mice
Conditions: endpoint: median survival time; dose: 200.0 mg/kg/injection; schedule: Q01DX009 (ip); vehicle: Klucel (hydroxypropylcellulose) (HPC); higher = longer survival
Toxic doses and inconclusive results are not listed.
Please go through the items and note down their T/C.

Worked set:
CN1CC(=O)N=C1N: 95 % of control
C[C@]12C=CC(=O)C=C1CC[C@H]1[C@@H]3C[C@@H](O)[C@](O)(C(=O)CO)[C@@]3(C)C[C@H](O)[C@@]12F: 113 % of control
C(=NCCc1ccccc1)c1ccccc1B1OB(c2ccccc2C=NCCc2ccccc2)OB(c2ccccc2C=NCCc2ccccc2)O1: 105 % of control
O=[N+]([O-])c1cc2c3ccccc3ccc2c2ccccc12: 100 % of control
N#Cc1ccc(/C=C/C(=O)c2ccccc2)cc1: 116 % of control
Nc1nc(N)c2cc(S(=O)(=O)c3ccc4ccccc4c3)ccc2n1: 95 % of control

Below are some compounds; for each one, tell me its T/C.
1. CC1=C(C)C2(C)C1(C)C1(C)C(C)=C(C)C21C (centres undefined)
2. Nc1ccc(CCc2ccc(N)cc2[N+](=O)[O-])c([N+](=O)[O-])c1
3. Nc1cccc2c1C(=O)c1cccc(NC(=O)c3ccccc3)c1C2=O

Response:
1. 105 % of control
2. 100 % of control
3. 122 % of control

---

Tested on: BDF1 mice, P388 leukemia ip, median survival T/C
Experiment: NCI In Vivo Anticancer Drug Screen. Data for tumor model P388 Leukemia (intraperitoneal) in B6D2F1 (BDF1) mice
Details: endpoint: median survival time; dose: 12.5 mg/kg/injection; schedule: Q01DX009 (ip); vehicle: water; higher = longer survival
Toxic doses and inconclusive results are not listed.
metric: T/C

// worked examples, T/C included
FC(Cl)(Cl)c1nc2nc(Cl)c(Cl)nc2[nH]1: 100 % of control
C#CCOCC(O)CO (stereo not drawn): 106 % of control
CC[N+](CC)(CC)CCCC[N+](CC)(CC)CC: 97 % of control

// batch mode: one T/C value per listed entry
1. O=C(c1cc(C(F)(F)F)cc(C(F)(F)F)c1)N1CC1
2. COc1cccc2c1C(=O)c1c(O)c(COC3CC(N)C(O)C(C)O3)cc(O)c1C2=O (stereo not drawn)
3. COc1cc2cc3c4cc(OC)c(OC)cc4cc[n+]3c(C)c2cc1OC

Response:
114 % of control
100 % of control
195 % of control

Record T/C per entry; entries follow.
1. CN(C)CCCNC1=CC(=O)c2ccccc2C1=O
2. Cc1cnc(C#N)c(-n2ccnc2)n1

Response:
1: 103 % of control; 2: 92 % of control
